From: ChEMBL document CHEMBL4400561

Test system: RAW264.7
measurement_description: Cytotoxicity against mouse RAW264.7 cells at anti-inflammatory IC50 after 19 hrs by MTT assay
Type: cell-based
run_conditions: raw264.7, 19 h
quantity: Activity

* CC1(C)CC[C@]2(C(=O)O[C@@H]3O[C@H](CO[C@@H]4O[C@H](CO)[C@@H](O)[C@H](O)[C@H]4O)[C@@H](O)[C@H](O)[C@H]3O)CC[C@]3(C)C(=CC[C@@H]4[C@@]5(C)CC[C@H](O)C(C)(C)[C@@H]5CC[C@]43C)[C@@H]2C1 | Non-Toxic
* CC1(C)CC[C@]2(C(=O)O[C@@H]3O[C@H](CO)[C@@H](O)[C@H](O)[C@H]3O)CC[C@]3(C)C(=CC[C@@H]4[C@@]5(C)CC[C@H](O)C(C)(C)[C@@H]5CC[C@]43C)[C@@H]2C1 | Non-Toxic
